Each entry below lists one item and its recorded protein stability index value.
B1: SNAP91 (parent)
chain: FSTDAFSSPPQGASPVPESSLTAD

Variants of: B1
ASSAY EXPLANATION: protein stability index of a GFP-peptide fusion (GPS, HEK-293T) (PSI 1-6); higher = more stable;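 further: lentivirally expressed fusions sorted by FACS into six bins by GFP to DsRed ratio, PSI derived from sequencing read proportions per bin multiplied by bin number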
MEASUREMENT PARAMETERS: c terminus: a fixed tail appended
ASSAY ENDPOINT: protein stability index

INSERT INTO assay_data (residue_change, assay_endpoint, readout_value) VALUES
  ('D4G', 'protein stability index', 2.71),
  ('P17Y', 'protein stability index', 2.69),
  ('D24H', 'protein stability index', 2.42),
  ('A13R', 'protein stability index', 2.77),
  ('P15V', 'protein stability index', 3.05),
  ('F1S', 'protein stability index', 5.65),
  ('Q11A', 'protein stability index', 3.33),
  ('F1G', 'protein stability index', 5.54),
  ('S7Y', 'protein stability index', 2.9),
  ('P17L', 'protein stability index', 3.23),
  ('P15K', 'protein stability index', 2.43),
  ('T22F', 'protein stability index', 2.96),
  ('A13N', 'protein stability index', 3.51),
  ('Q11F', 'protein stability index', 2.68),
  ('G12E', 'protein stability index', 3.58),
  ('F1R', 'protein stability index', 5.39),
  ('V16A', 'protein stability index', 3.6),
  ('P17D', 'protein stability index', 4.14),
  ('T22V', 'protein stability index', 3.41),
  ('T22R', 'protein stability index', 2.93),
  ('A23I', 'protein stability index', 3.08),
  ('S19T', 'protein stability index', 3.54),
  ('F1L', 'protein stability index', 5.57),
  ('P9T', 'protein stability index', 2.85),
  ('A5T', 'protein stability index', 4.96),
  ('A5Q', 'protein stability index', 4.88),
  ('T3E', 'protein stability index', 5.08),
  ('P9N', 'protein stability index', 3.13),
  ('E18Q', 'protein stability index', 3.12),
  ('D4L', 'protein stability index', 2.63),
  ('P10F', 'protein stability index', 2.28),
  ('F1T', 'protein stability index', 5.55),
  ('A5N', 'protein stability index', 5.16),
  ('P10R', 'protein stability index', 2.55),
  ('Q11L', 'protein stability index', 2.74),
  ('S8T', 'protein stability index', 3.33),
  ('V16S', 'protein stability index', 2.96),
  ('G12L', 'protein stability index', 2.75),
  ('S8Q', 'protein stability index', 2.86),
  ('L21Y', 'protein stability index', 2.81),
  ('S20W', 'protein stability index', 2.52),
  ('Q11C', 'protein stability index', 2.56),
  ('P15H', 'protein stability index', 3.5),
  ('S2Y', 'protein stability index', 4.7),
  ('F1Y', 'protein stability index', 3.31),
  ('D24Q', 'protein stability index', 3.01);

The reported measurements were obtained from the supplement of paper PMC10567573.
